Tested on: pigweed (Amaranthus retroflexus)
Test: Test A pre-/postemergence plant response
Assay type: in vivo
Conditions: Postemergence, 125 g ai/ha; visual injury, 0 to 100 scale (0 no effect, 100 complete control), approx. ten days
MEASUREMENT KIND: Pigweed plant response rating
Just the number.

Past entries and their recorded results:
{"MOLECULE": "O=C1CCCC([O-])=C1C(=O)c1cnc(-c2ccccc2)n(-c2ccccc2)c1=O.[K+] [Compound 14]", "Pigweed plant response rating": 80}
{"MOLECULE": "Cc1ccc(Cl)cc1-n1c(-c2ccccc2)ncc(C(=O)C2=C(O)CCCC2=O)c1=O [Compound 52]", "Pigweed plant response rating": 90}
{"MOLECULE": "O=C1CCCC(O)=C1C(=O)c1cnc(-c2ccccc2)n(-c2ccc(F)cc2)c1=O [Compound 24]", "Pigweed plant response rating": 90}
{"MOLECULE": "O=C1CCCC(O)=C1C(=O)c1cnc(-c2cccs2)n(-c2ccccc2)c1=O [Compound 66]", "Pigweed plant response rating": 100}
{"MOLECULE": "CC(C)Cc1ncc(C(=O)C2=C(O)CCCC2=O)c(=O)n1-c1ccccc1 [Compound 68]", "Pigweed plant response rating": 100}
{"MOLECULE": "Cc1ccc(-n2c(-c3cccc(Cl)c3)ncc(C(=O)C3=C(O)CCCC3=O)c2=O)cc1 [Compound 39]", "Pigweed plant response rating": 100}
{"MOLECULE": "Cc1cccc(-n2c(-c3ccccc3)ncc(C(=O)C3=C(O)CCCC3=O)c2=O)c1 [Compound 18]", "Pigweed plant response rating": 100}
{"MOLECULE": "CCn1c(-c2ccccc2)ncc(C(=O)C2=C(O)CCCC2=O)c1=O [Compound 49]", "Pigweed plant response rating": 100}

Per the reported pigweed (Amaranthus retroflexus) data, O=C1CCCC(O)=C1C(=O)c1cnc(-c2cccc(Br)c2)n(-c2ccccc2)c1=O [Compound 69] has Pigweed plant response rating of 100

----------
Test system: prickly sida (Sida spinosa)
Test: Test D pre-/postemergence plant response
Type: in vivo
Details: Postemergence, 125 g ai/ha; scale 0 to 100 (0 no effect, 100 complete control)
MEASUREMENT KIND: Plant response rating, Prickly Sida
Please reply with the number alone, leaving off any unit.

A selection of reference data follows.
{"COMPOUND": "Cc1c(F)cccc1-n1c(-c2ccccc2)ncc(C(=O)C2=C(O)CCCC2=O)c1=O", "Plant response rating, Prickly Sida": 90}
{"COMPOUND": "CCCCn1c(-c2ccccc2)ncc(C(=O)C2=C(O)C3CCC(C3)C2=O)c1=O (stereo not shown)", "Plant response rating, Prickly Sida": 75}
{"COMPOUND": "CCCn1c(-c2ccccc2)ncc(C(=O)C2=C(O)C3CCC(C3)C2=O)c1=O (stereo not shown)", "Plant response rating, Prickly Sida": 70}

Switching to the query record.
Lab entry: prickly sida (Sida spinosa) assay, compound COCCCn1c(-c2cc(F)cc(F)c2)ncc(C(=O)C2=C(O)C3CCC(C3)C2=O)c1=O (stereo not shown) , Plant response rating, Prickly Sida = 40

----------
Test system: large crabgrass (Digitaria sanguinalis)
Assay: Test B pre-/postemergence plant response
Format: in vivo
Conditions: Postemergence, 125 g ai/ha; scale 0 to 100 (0 no effect, 100 complete control)
Reported Plant response rating, Crabgrass, Large values are given for each entry in this list.
Enter the number alone.

{"MOLECULE": "O=C1CCCC(O)=C1C(=O)c1cnc(-c2ccccc2)n(C2CC[S+]([O-])CC2)c1=O (mixture of isomers)", "Plant response rating, Crabgrass, Large": 100}
{"MOLECULE": "Cc1ccc(-n2c(-c3cc(F)cc(F)c3)ncc(C(=O)C3=C(O)CCCC3=O)c2=O)cc1", "Plant response rating, Crabgrass, Large": 98}

# evaluate next
Value of measured Plant response rating, Crabgrass, Large for the entry O=C1CCCC(O)=C1C(=O)c1cnc(-c2ccsc2)n(CC2CCCO2)c1=O (stereo not drawn) : 80
